Reference source for all entries: ChEMBL document CHEMBL4513216

Assay: Toxicity liver stage against HepG2, at 10uM
Type: cell-based
Parameters: test concentration 10 uM, cell line HepG2-A16-CD81EGFP
Conditions: human, HepG2-A16-CD81EGFP cells; read-out: INHIBITION
PROPERTY_LABEL: cytotoxicity at 10 µM (%)
Kindly answer with a numeric value in %, unit omitted.

Ask | Read the entry Cc1cc(C(=O)OCC2CCCN2C(N)=O)c(C)o1 (stereo not given) and write its reported cytotoxicity at 10 µM.
Reply | 6.72

Ask | Read the entry CC(C)(C)OC(=O)N1CCCCC(NC(=O)CCc2cccnc2)C1 (stereo not given) and write its reported cytotoxicity at 10 µM.
Reply | 17.5

Ask | Read the entry `CN(C)C[C@@H]1C[C@@H]2CN(C(=O)c3ccoc3)CC[C@@H]2N1CC1CC1` and write its reported cytotoxicity at 10 µM.
Reply | 6.71

Ask | Read the entry CN(C)C(=O)COc1ccccc1CNC1CCc2ncnn2C1 (stereo not given) and write its reported cytotoxicity at 10 µM.
Reply | 5.38

Ask | Read the entry `CCN(C(=O)c1nc2c(s1)CCCN2C(C)=O)C(C)C` and write its reported cytotoxicity at 10 µM.
Reply | -0.802
